Target: Cholinesterase (Homo sapiens, UniProt P06276)
Sequence (P06276 whole entry): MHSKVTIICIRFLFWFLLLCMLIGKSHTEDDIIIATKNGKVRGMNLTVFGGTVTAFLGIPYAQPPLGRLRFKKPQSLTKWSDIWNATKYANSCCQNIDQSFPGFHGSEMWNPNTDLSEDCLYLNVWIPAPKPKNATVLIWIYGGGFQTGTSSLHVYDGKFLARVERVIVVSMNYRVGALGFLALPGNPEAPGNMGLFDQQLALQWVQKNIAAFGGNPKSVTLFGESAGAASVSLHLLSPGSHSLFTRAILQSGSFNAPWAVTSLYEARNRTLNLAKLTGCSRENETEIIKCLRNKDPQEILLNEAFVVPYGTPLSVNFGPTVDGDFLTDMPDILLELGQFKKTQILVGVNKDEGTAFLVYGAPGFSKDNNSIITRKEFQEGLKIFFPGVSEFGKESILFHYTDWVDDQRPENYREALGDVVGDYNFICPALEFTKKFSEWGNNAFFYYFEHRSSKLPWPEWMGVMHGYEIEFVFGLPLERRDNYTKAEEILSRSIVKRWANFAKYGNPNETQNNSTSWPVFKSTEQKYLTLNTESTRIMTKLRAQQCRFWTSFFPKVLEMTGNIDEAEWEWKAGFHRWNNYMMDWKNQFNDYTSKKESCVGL
Experiment: Inhibition of BChE (unknown origin) at 5 uM incubated for 10 mins by Ellman's method relative to control
Where a SMILES comes first, the peptide text is derived from it.
metric: inhibition (%)
// units = %; emit number, no label

As a guide, the following entries are already answered.
Cc1nc(C(N)=S)sc1C(=O)CC(=O)C(=O)Nc1nc2ccccc2[nH]1; 43.5
O=c1[nH]c2cc(Cl)ccc2n1C1CCN(CCCC(c2ccc(F)cc2)c2ccc(F)cc2)CC1; 43.2
COc1ccc(OC)c2[nH]c(CCc3nc4c(OC)ccc(OC)c4[nH]3)nc12; 16.7
Cc1cc(S(=O)(=O)N=c2[nH]c3cccc(C)c3[nH]2)c(SCc2ccccc2)cc1Cl; 55.6
Cc1ccc2nc(CN(CCN(Cc3nc4ccc(C)cc4[nH]3)Cc3nc4ccc(C)cc4[nH]3)Cc3nc4ccc(C)cc4[nH]3)[nH]c2c1; 41.7
O=S(=O)(Cc1nc2ccccc2[nH]1)Cc1nc2ccccc2[nH]1; 62
CCC(C)C(NC(=O)C(CC(C)C)NC(=O)C(N)Cc1c[nH]c2ccccc12)C(=O)NC(Cc1c[nH]c2ccccc12)C(=O)O (stereo not drawn) (H-WLIW-OH; configuration not given here); 38.9

# ---- query molecule ----
[Q] Cholinesterase (Homo sapiens, UniProt P06276) / inhibition / Oc1ccc2[nH]c3c(c2c1)C[PH](Cc1cccc2ccccc12)(c1ccccc1)CC3 : value?
[A] 99.7

====

In this section we review reported inhibition values for a set of compounds.
Target: Cholinesterase (Homo sapiens)
Test: Inhibition of BChE (unknown origin) at 5 uM incubated for 10 mins by Ellman's method relative to control
// units = %; emit number, no label

Cc1ccc2[nH]/c(=N/S(=O)(=O)c3cc(C)c(Cl)cc3S)[nH]c2c1; 50.9

[Q] What does the data say about its inhibition? Entry: Cn1c(=O)c2[nH]c(CCc3nc4c([nH]3)c(=O)n(C)c(=O)n4C)nc2n(C)c1=O
[A] 17.9

[Q] What does the data say about its inhibition? Entry: c1ccc2c(CN3CCN(Cc4c[nH]c5ccccc45)CC3)c[nH]c2c1
[A] 76.5

[Q] What does the data say about its inhibition? Entry: Cc1cc(CSCCc2nc3ccccc3[nH]2)c(O)c(CSCCc2nc3ccccc3[nH]2)c1
[A] 101

[Q] What does the data say about its inhibition? Entry: Cn1c(=O)c2nc(CS(=O)(=O)Cc3nc4c(=O)n(C)c(=O)n(C)c4[nH]3)[nH]c2n(C)c1=O
[A] 8

[Q] What does the data say about its inhibition? Entry: Cn1c(=O)c2[nH]c(CCCc3nc4c([nH]3)c(=O)n(C)c(=O)n4C)nc2n(C)c1=O
[A] 19.1

[Q] What does the data say about its inhibition? Entry: Cc1cc2nc(C(O)C(O)C(O)C(O)c3nc4cc(C)c(C)cc4[nH]3)[nH]c2cc1C (configuration not stated)
[A] 4

====

Molecular target: UniProt:P06276
Assay: Inhibition of BChE (unknown origin) at 5 uM incubated for 10 mins by Ellman's method relative to control
Where a SMILES comes first, the peptide text is derived from it. The star is where a group is joined. Boc = CC(C)(C)OC(=O)*
Quick rule for you: inhibition at 50% or higher means YES, lower means NO.

Observe how each entry below is paired with its result.
Cc1[nH]c2ccccc2c1C(=O)CC1(O)C(=O)Nc2c(Cl)cc(Cl)cc21 (stereo not drawn); NO
COC(=O)C(Cc1c[nH]c2ccccc12)NC(=O)C(Cc1c[nH]c2ccccc12)NC(=O)C(Cc1c[nH]c2ccccc12)NC(=O)C(Cc1c[nH]c2ccccc12)NC(=O)C(Cc1c[nH]c2ccccc12)NC(=O)C(Cc1c[nH]c2ccccc12)NC(=O)OC(C)(C)C (stereo not drawn) (Boc-WWWWWW-OMe; configuration not given here); NO
Cn1c(=O)c2[nH]c(CCCc3nc4c(c(=O)n(C)c(=O)n4C)n3C)nc2n(C)c1=O; NO
Cc1c(C(=O)CSc2nc3ccccc3[nH]2)c(=O)n(-c2ccccc2)n1C; YES

Shifting focus to the compound that follows.
[Q] Please indicate if the recorded inhibition for Cn1c(=O)c2nc(CCCCc3nc4ccccc4[nH]3)[nH]c2n(C)c1=O meets or exceeds 50%.
[A] NO
